Reported fold change by item:
experiment: viability loss with induced miR-34 in A549 – imaging, A549 dox-inducible miR-34, nuclei and caspase counts, primary screen (AID 1347080); conditions: A549 miR-34 inducible, Hoechst nuclei count, 48 h; hits give low values; cell number ratio, induced over uninduced; also: test concentration not given here
Number, no unit, nothing else.

In the examples that follow, each entry is paired with its recorded fold change.
Q) Name the reported fold change value associated with the molecule CCCCC[C@H](O)/C=C/[C@H]1CCC(=O)[C@@H]1C/C=C\CCCC(=O)O
A) 0.932

Q) Name the reported fold change value associated with the molecule O=C(CCCCCc1ccccc1)c1nc2ncccc2o1
A) 1.06

Q) Name the reported fold change value associated with the molecule C[C@H](Cc1ccc(O)c(O)c1)[C@@H](C)Cc1ccc(O)c(O)c1
A) 1.02

Q) Name the reported fold change value associated with the molecule CCCCCCCCCCCCCCCCOC[C@H](COP(=O)([O-])OCC[N+](C)(C)C)SC(C)=O
A) 0.92

Q) Name the reported fold change value associated with the molecule O=C(NC1CCNCC1)c1[nH]ncc1NC(=O)c1c(Cl)cccc1Cl
A) 1.06

---
Q) Name the reported fold change value associated with the molecule Cn1cccc1/C=C1\C(=O)NC(=O)c2ccccc21
A) 0.918

Q) Name the reported fold change value associated with the molecule CC#CCC(C)[C@@H](O)/C=C/[C@@H]1[C@H]2C/C(=C/CCCC(=O)O)C[C@H]2C[C@H]1O (stereo not given in full)
A) 0.965

Q) Name the reported fold change value associated with the molecule CC#CCC(C)C(=O)/C=C/[C@@H]1[C@H]2C/C(=C/CCCC(=O)O)C[C@H]2C[C@H]1O (stereo not given in full)
A) 0.968

Q) Name the reported fold change value associated with the molecule CCCNC(=O)Nc1ccc(Oc2ncnc3cc(OC)c(OC)cc23)cc1Cl
A) 0.924

Q) Name the reported fold change value associated with the molecule CCCCCCCCCCCCCC(=O)N[C@H](CO)[C@H](O)c1ccc([N+](=O)[O-])cc1
A) 0.96

Recorded values, source PubChem BioAssay.
